Test: NCI Yeast Anticancer Drug Screen. Data for the mec2-1 strain (AID 157)
Conditions: S. cerevisiae mec2-1 strain, at 50.0 µM, stronger effect = higher value
The panel holds about 79,000 compounds, 15% with a hit somewhere; the sample as a whole holds those more often. Active and inactive are the calls of the source. No stated cut-off is given here; in the data, active means growth inhibition above about 70%; inactive means the rest.
PROPERTY_MEASURED: growth inhibition

For orientation, consider the following solved cases.
N#C/C(=C\c1ccc(Cl)cc1)c1nc2ccccc2c(=O)[nH]1	17.9% (inactive)
O=[N+]([O-])c1ccc(CN(Cc2ccc([N+](=O)[O-])cc2)c2ccc3c(c2)C(O)c2ccccc2-3)cc1 (stereo unspecified)	1% (inactive)
c1ccc(CN2CCc3ncnc(Nc4ccccc4)c3C2)cc1	1.25% (inactive)

Here are 4 compounds. What values of growth inhibition were reported for them?
1. NC(Cc1ccc(O)c(O)c1)C(=O)OCc1ccccc1 (stereo unspecified)
2. CC1OC(C)(CCc2ccccc2)OC1C (stereo unspecified)
3. CCN(CC)C1=CC(=O)C(N(CC)CC)=CC1=O
4. NCC1OC(OC2C(CO)OC(OC3C(O)C(N)CC(N)C3OC3OC(CO)C(O)C(O)C3N)C2O)C(N)C(O)C1O (stereo unspecified)

Result:
1. 60.7% (inactive)
2. -46.8% (inactive)
3. 0.15% (inactive)
4. -18.1% (inactive)

Here are 4 compounds. What values of growth inhibition were reported for them?
1. CN(C)Cn1c2ccccc2c2ccccc21
2. CS(=O)c1ccc(/C=C2/C=Cc3ccccc32)cc1 (stereo unspecified)
3. COc1cccc2c(Cl)c3ccc(Cl)cc3nc12
4. CC1(C)CC(O)(Cc2ccccc2)C(O)c2ccccc21 (stereo unspecified)

Result:
["-1.1% (inactive)", "27.3% (inactive)", "5.25% (inactive)", "32.1% (inactive)"]
